// provenance: the supplement of paper PMC7125110

B1: glmS ribozyme (parent)
chain: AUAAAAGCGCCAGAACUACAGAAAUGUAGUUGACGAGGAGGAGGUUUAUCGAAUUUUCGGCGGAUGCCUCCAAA

Variants of: B1
Test: self-cleavage kobs at 640 uM GlcN6P; higher = faster cleavage; RNA array
Conditions: with glucosamine-6-phosphate
Fewer inactive variants are shown than the library holds.
Overview of reported self-cleavage kobs at 640 uM GlcN6P across a group of variants:
reported.metric: self-cleavage kobs at 640 uM GlcN6P

>  <mutant.designation>
G41U U45A G51C C58G

>  <reported.metric>
self-cleavage kobs at 640 uM GlcN6P

>  <result>
< 1e-05 s⁻¹

$$$$
>  <mutant.designation>
A6G A12C G40A

>  <reported.metric>
self-cleavage kobs at 640 uM GlcN6P

>  <result>
< 1e-05 s⁻¹

$$$$
>  <mutant.designation>
C34U G59A

>  <reported.metric>
self-cleavage kobs at 640 uM GlcN6P

>  <result>
< 1e-05 s⁻¹

$$$$
>  <mutant.designation>
G7U A14G G40U

>  <reported.metric>
self-cleavage kobs at 640 uM GlcN6P

>  <result>
< 1e-05 s⁻¹

$$$$
>  <mutant.designation>
A14C A36C U65G

>  <reported.metric>
self-cleavage kobs at 640 uM GlcN6P

>  <result>
< 1e-05 s⁻¹

$$$$
>  <mutant.designation>
G35C C50A

>  <reported.metric>
self-cleavage kobs at 640 uM GlcN6P

>  <result>
< 1e-05 s⁻¹

$$$$
>  <mutant.designation>
G7U A14U A52C C68A

>  <reported.metric>
self-cleavage kobs at 640 uM GlcN6P

>  <result>
0.00249 s⁻¹

$$$$
>  <mutant.designation>
G7A A48U C71U

>  <reported.metric>
self-cleavage kobs at 640 uM GlcN6P

>  <result>
< 1e-05 s⁻¹

$$$$
>  <mutant.designation>
U46G

>  <reported.metric>
self-cleavage kobs at 640 uM GlcN6P

>  <result>
0.00241 s⁻¹

$$$$
>  <mutant.designation>
C11U U57G G63A

>  <reported.metric>
self-cleavage kobs at 640 uM GlcN6P

>  <result>
< 1e-05 s⁻¹

$$$$
>  <mutant.designation>
G9A C68A U69C

>  <reported.metric>
self-cleavage kobs at 640 uM GlcN6P

>  <result>
< 1e-05 s⁻¹

$$$$
